Test: NCI Yeast Anticancer Drug Screen. Data for the sgs1 mgt1 strain (AID 161);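 also: 0% = growth of cultures given vehicle only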
Settings: S. cerevisiae sgs1 mgt1 strain, at 50.0 µM, active compounds read high
Description: Growth inhibition of yeast strains with defined genetic alterations is measured as a screen for potential anti-cancer activity. Selected strains with alterations in DNA damage repair or cell cycle control were exposed to compounds and growth inhibition was measured relative to vehicle treated controls. The strain used in this assay is sgs1 mgt1
About 79,000 compounds went through this panel and 15% of them were active in at least one assay; those are over-represented in the sample as a whole.
Task for the reader: assign each of the following compounds its reported growth inhibition.
Record the value in %, omitting the unit from your answer.

(Q) Field request: growth inhibition | item: NCC(=O)CCC(=O)O
(A) 0.5

(Q) Repeat with O=C1C=CC(=O)N1c1ccc(I)cc1Cl
(A) 44.1

(Q) # repeat for CCOC(=O)c1[nH]c(C)c(C(C)=O)c1C
(A) 9

(Q) // same read-out, input: O=C1OC(c2ccc(F)cc2)CC1CN1CCOCC1 (stereo unspecified)
(A) 30.6

(Q) Try the compound O=C(O)CCC(NC(=O)OCc1ccccc1)C(=O)O (stereo unspecified)
(A) -8.45

(Q) Please give the result for CN(c1ccccc1)c1ncnc2c1ncn2C too.
(A) 1.75

(Q) Follow-up entry: O=C(O)COCC(=O)O
(A) -11.4

(Q) Same lookup for CCC(C#N)(CC)c1ccccc1 , please.
(A) 11.1

(Q) Moving on to CC[N+](C)(CC)CCO
(A) 4.4

(Q) Likewise for CCOC(=O)CNN ?
(A) -12.2

(Q) Then this compound: Nc1nc(OCc2ccccc2)c2[nH]cnc2n1
(A) -48.1

* * *

Could you please report measured growth inhibition for the items listed next?
Experiment: NCI Yeast Anticancer Drug Screen. Data for the bub3 strain (AID 167)
Conditions: S. cerevisiae bub3 mutant strain, at 50.0 µM, active compounds read high
Procedure: Growth inhibition of yeast strains with defined genetic alterations is measured as a screen for potential anti-cancer activity. Selected strains with alterations in DNA damage repair or cell cycle control were exposed to compounds and growth inhibition was measured relative to vehicle treated controls. The strain used in this assay is bub3
The panel holds about 79,000 compounds, 15% with a hit somewhere; the sample as a whole holds those more often.
Express it in %; write the number only.

(Q) Consider the compound Nc1ccc(N=Nc2ccc(O)cc2)c(N)n1 and give its measured growth inhibition.
(A) 22.7

(Q) Similarly, COC(=O)/C=C\C(=O)OC ?
(A) -10.3

(Q) Repeat for the following compound: CCC(O)CC(CC)CO (stereo unspecified)
(A) -12.2

(Q) And for CCCOC(=O)C(O)c1ccccc1 (stereo unspecified) ?
(A) -13.2

(Q) And the next one, CC(C(=O)O)(C1CCCCC1)C1(O)CCCCC1 (stereo unspecified) ?
(A) 62.5

(Q) Ok, now O=C(Nc1ccccc1C(=O)NCC1CC1)c1cccs1
(A) 5.9

(Q) One more compound: C[N+](C)(C)C(=O)c1ccccc1
(A) -1.15

(Q) Also O=C1C=C(O)C(=O)C=C1O ?
(A) -2.35

(Q) And Clc1ccc(-c2nnc(-c3cccc4ccccc34)o2)cc1 ?
(A) -19.6

(Q) What do we get for CCOc1ccc2[nH]c(=S)sc2c1 ?
(A) -1.5

(Q) Try this compound too: CCOC(=O)CCCS(C)(=O)=O
(A) -1.95

(Q) Next compound up: Cc1cccc(CO)c1
(A) -18.4

(Q) Item: CN(C)c1ccc2oc(=O)c3ccccc3c2c1
(A) 0.5

(Q) Now consider Cc1ccc(Cl)cc1NC(=O)N(C)CCO .
(A) 4.05

(Q) Here is the next compound: CCc1ccc(/C(C#N)=C/C=C/c2ccccc2)cc1
(A) 38

(Q) Next compound up: [O-][N+](=Nc1cccc(Cl)c1)c1cccc(Cl)c1
(A) 21.2

(Q) Ok, now Sc1ccc(Nc2c3ccccc3nc3ccccc23)cc1
(A) 25.6

(Q) Record: C#CC(C)(O)c1ccc(Cl)cc1 (stereo unspecified)
(A) -26.4

(Q) Moving on to CC(=O)Nc1cccc(NC(C)=O)n1
(A) 7.8

(Q) What do you get for CC1(C)OC(=O)C(c2ccsc2)C(=O)O1 ?
(A) -7.05

(Q) Next compound up: CC1(C)/C(=C\CO)C2CCC1C2 (stereo unspecified)
(A) -2.65

(Q) Note, next up: O=C(OCC(O)C1OC(c2ccccc2)OC(COC(=O)c2ccccc2)C1O)c1ccccc1 (stereo unspecified)
(A) 1

(Q) Query O=C(Nc1cc(-c2ccccc2)[nH]n1)c1ccc(Cl)cc1 next
(A) -7.15

(Q) Check Nc1ccc(C(=O)c2ccc(N)c(Br)c2)cc1Br too.
(A) 43.3

(Q) Again, but for CC(=O)C1CCCCC1
(A) 1.2

(Q) Try O=C(/C=C\c1ccc(O)cc1)c1ccccc1 next.
(A) 29.6

(Q) Input CCCC1(c2ccccc2)NC(=O)NC1=O (stereo unspecified)
(A) 7.95

(Q) One more compound: Cc1ccc(C)n1-c1ccsc1C(=O)NNC(=O)C(Cl)Cl
(A) 21.7

(Q) Also Cc1c(C(=O)O)c(=O)n(-c2ccccc2)n1C ?
(A) -16.9

(Q) Same read-out for O=[N+]([O-])c1cccc(N=Nc2ccc(O)cc2O)c1 ?
(A) 4.2

(Q) Consider next the compound Cc1ccc(Cl)cc1N1C(=O)CC(Sc2ccccc2N)C1=O (stereo unspecified) in the same way.
(A) 30.8
